Molecular target: GmRLK8-1 LRR domain (RHG4)
Experiment: Binding of CLE like peptides to purified LRR domain of the RLK at Rhg4, titration by luminescence spectrometry
Parameters: species or system Glycine max
Details: assays in vitro; read-out: affinity, GmRLK8-1 LRR domain
Where no end group is shown, it is not given here.
reported.metric: pKd
Value format note: pKd is -log10 of concentration (mol/L); just state the number.

Q: Form field: pKd recorded for KRLSPSGPDPHHH [N, KRLSPSGPDPHHH] with GmRLK8-1 LRR domain (RHG4) (enter value)
A: 7.11

###

Molecular target: GmRLK8-1 LRR domain (RHG4)
Test: Binding of CLE like peptides to purified LRR domain of the RLK at Rhg4, titration by luminescence spectrometry
Set-up: species or system Glycine max
Details: purified LRR domain; binding constants calculated from titration experiments; read-out: Kd (nM) RHG4
Where no end group is shown, it is not given here.
Below, each entry is listed with its recorded Kd.
Lab book: enter the figure in nM, no units written.

Worked cases, Kd given:
residue.sequence: RAELDFNYMSKRRVPNGPDPIHNRRAGNSGR [36L]
Kd, nM: 51
--
residue.sequence: AHEVPSGPNPISNR [T, AHEVPSGPNPISNR]
Kd, nM: 204
--
residue.sequence: CTLSRLKTLDISNNALNGNLPATLSNLS [L]
Kd, nM: 135
--
residue.sequence: RTVPSGPDPLHH [compound 3, RTVPSGPDPLHH]
Kd, nM: 50
--
residue.sequence: RLAPGGPDPQHN [compound 2, RLAPGGPDPQHN]
Kd, nM: 96

Q: Form field: Kd recorded for SKRRVPNGPDPIHNR [compound 36, SKRRVPNGPDPIHNR] with GmRLK8-1 LRR domain (RHG4) (enter value)
A: 52

Q: Form field: Kd recorded for DLPLAPADRLAPGGPDPQHNVRAPPRKP [2L] with GmRLK8-1 LRR domain (RHG4) (enter value)
A: 338

Q: Form field: Kd recorded for KGLGLHEELRTVPSGPDPLHHHVNPPRQPR [3L] with GmRLK8-1 LRR domain (RHG4) (enter value)
A: 142

Q: Form field: Kd recorded for RLAPEGPDPHHN [compound 30, RLAPEGPDPHHN] with GmRLK8-1 LRR domain (RHG4) (enter value)
A: 84
